assay: Pharmacokinetics and colon distribution in rats; assay type: in vivo, male Wistar rats; details: male, Wistar, po; Rat, 5 mg/kg p.o., Plasma
reported.property: AUC(0-t) (ng·h/mL)
Number only, in ng·h/mL; omit the unit.

Fill blank: measured AUC(0-t) of the compound C#Cc1cc(Nc2nccc(Oc3ccc(NC(=O)Nc4cc(C(C)(C)C)nn4-c4ccc(C)cc4)c4ccccc34)n2)cc(C(=O)NCCOCCOCCOC)c1 [Example 2] is ____.
4.8

###

assay: Pharmacokinetics and colon distribution in mice; format: in vivo, male C57BL/6 mice; conditions: male, C57BL/6, plasma, po; mouse, 5 mg/kg p.o., 2 hr; read-out: Mean concentration, Plasma
reported.property: concentration at 2 h (ng/mL)
Number only, in ng/mL; omit the unit.

Fill blank: measured concentration at 2 h of the compound C#Cc1cc(Nc2nccc(Oc3ccc(NC(=O)Nc4cc(C(C)(C)C)nn4-c4ccc(C)cc4)c4ccccc34)n2)cc(C(=O)NCCOCCOCCOC)c1 is ____.
8.5
